The values you see were collected from patent US10703764B2.

For each of the compounds below, state its pIC50.
Target: BRD4 BD2 (Homo sapiens)
Assay: AlphaScreen binding assay, BRD4 Bromodomain 2
pIC50: −log10 of the molar value.

[in] Could you share what pIC50 was measured for CC(=O)N1c2ccc(-c3cncc(F)c3)cc2N(C(=O)c2ccco2)C[C@@H]1C [Example I-830] , tested on BRD4 BD2 (Homo sapiens)?
[out] 6.30 to 7.30

[in] Could you share what pIC50 was measured for CC(=O)N1c2ccc(-c3cnn(CCN4CCCS4(=O)=O)c3)cc2N(C(=O)C2CC2)C[C@@H]1C [Example I-659] , tested on BRD4 BD2 (Homo sapiens)?
[out] 6.30 to 7.30

[in] Could you share what pIC50 was measured for CC(=O)N1c2ccccc2N(C(=O)c2cc3n(n2)CCC3)C[C@@H]1C [Example I-774] , tested on BRD4 BD2 (Homo sapiens)?
[out] < 6.30

[in] Could you share what pIC50 was measured for CC(=O)N1c2ccc(-c3ccc(C(=O)N(C)CCN(C)C)cc3)cc2N(C(=O)OC(C)C)C[C@@H]1C [Example I-539] , tested on BRD4 BD2 (Homo sapiens)?
[out] 6.30 to 7.30

[in] Could you share what pIC50 was measured for CC[C@H]1CN(C(=O)c2ccco2)c2cc(-c3ccc(S(C)(=O)=O)cc3)ccc2N1C(C)=O [Example I-6] , tested on BRD4 BD2 (Homo sapiens)?
[out] 6.30 to 7.30
